# study.target: T1, human CD3 expressed on cells (Jurkat cells, a CD3+ human T-cell line; human PBMC T cells) (human, UniProt P07766 23-207; P04234 22-171)
# T1 construct: Cell-surface CD3 within the T cell receptor complex
# T1 sequence (P07766 23-207 limits assumed, chain 1 of 2): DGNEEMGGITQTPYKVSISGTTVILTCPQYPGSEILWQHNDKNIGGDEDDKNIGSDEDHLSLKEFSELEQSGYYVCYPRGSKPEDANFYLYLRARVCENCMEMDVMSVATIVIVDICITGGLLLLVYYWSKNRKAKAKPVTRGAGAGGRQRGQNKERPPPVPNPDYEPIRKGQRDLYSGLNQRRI
# T1 sequence (P04234 22-171 limits assumed, chain 2 of 2): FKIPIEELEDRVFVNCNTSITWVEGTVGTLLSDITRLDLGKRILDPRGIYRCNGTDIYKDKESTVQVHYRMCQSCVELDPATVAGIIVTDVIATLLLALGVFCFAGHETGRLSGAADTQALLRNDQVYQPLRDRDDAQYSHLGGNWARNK
# experiment.notes: FACS on Jurkat cells
Threshold 2 nM. EC50 below it: label 1. EC50 at it or above: label 0.

* H2M2886N (antibody, mouse IgG2, V domains shown, H2M: mouse IgG2 Fc, human variable regions; divalent) VH: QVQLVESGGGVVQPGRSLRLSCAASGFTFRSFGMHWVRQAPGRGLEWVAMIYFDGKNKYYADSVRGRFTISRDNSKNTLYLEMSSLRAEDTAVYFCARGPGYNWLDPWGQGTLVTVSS VL: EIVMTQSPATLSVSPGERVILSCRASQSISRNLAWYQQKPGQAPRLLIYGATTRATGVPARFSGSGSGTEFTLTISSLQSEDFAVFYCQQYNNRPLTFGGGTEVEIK | label 0
* H2M3540N (antibody, mouse IgG2, V domains shown, H2M: mouse IgG2 Fc, human variable regions; divalent) VH: QVHLEESGGGVVQPGRSLRLSCSASGFTFSSYAMHWVRQAPGKGLEWVAVIWYDGTNKYYLDSVKGRFTISRDNSKNTLFLQMNSLRAEDTAVYYCARDRGSIITHWGQGTLVTVSS VL: DIQMTQSPSSLSASIGDRVTITCRASQNISSYLNWYQQKPGKAPKLLIYAASSLQSGVPSRFSGSGSGTDFTLTISSLQPEDFATYYCQQTYSTPPITFGQGTRLEIK | label 0
* H2M2707N (antibody, mouse IgG2, V domains shown, H2M: mouse IgG2 Fc, human variable regions; divalent) VH: QVQLVESGGGVVQPGRSLRLSCIASGFTFRSYGMHWVRQAPGKGLEWVAMIYYDGNNKYYADSVRGRFTISRDNSKNTLYLQMNSLRADDTAVYFCARGPGYNWLDPWGQGTLVTVSS VL: EIVMTQSPATLSVSPGERATLSCRASQSVSSNLAWYQQKPGQAPRLLIYGASTRATGIPARFSGSGSGTEFTLTISSLQSEDFAVYYCQQYNNRPLTFGGGTKVEIK | label 0
* H2M2708N (antibody, mouse IgG2, V domains shown, H2M: mouse IgG2 Fc, human variable regions; divalent) VH: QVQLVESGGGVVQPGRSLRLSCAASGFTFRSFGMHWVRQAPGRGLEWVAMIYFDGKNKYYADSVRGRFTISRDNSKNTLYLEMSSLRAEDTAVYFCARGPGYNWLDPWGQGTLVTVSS VL: EIVMTQSPATLSVSPGERVTLSCRASQSISRNLAWYQQKPGQAPRLLIYGASTRATGVPARFSGSGSGTEFTLTISSLQSEDFAVFHCQQYNNRPLTFGGGTEVEIK | label 1
* H2M2885N (antibody, mouse IgG2, V domains shown, H2M: mouse IgG2 Fc, human variable regions; divalent) VH: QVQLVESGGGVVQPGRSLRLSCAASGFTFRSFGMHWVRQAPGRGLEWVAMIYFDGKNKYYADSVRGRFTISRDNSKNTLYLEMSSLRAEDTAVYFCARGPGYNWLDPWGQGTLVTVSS VL: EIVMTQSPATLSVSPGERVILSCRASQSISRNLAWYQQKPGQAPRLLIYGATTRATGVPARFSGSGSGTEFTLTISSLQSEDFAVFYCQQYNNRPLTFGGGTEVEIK | label 0
* H2M3543N (antibody, mouse IgG2, V domains shown, H2M: mouse IgG2 Fc, human variable regions; divalent) VH: EVQLVESGGGLVQPGRSLRLSCAASGFTFDDYTMHWVRQAPGKGLEWVSDISWNSGSIGYADSVKGRFTVSRDNAKNSLYLQMNSLRGEDTALYYCAKDMSGYAHYGYYGMDVWGQGTTVTVSS VL: DIQMTQSPSSLSASVGDRVTITCRASQSIRNYLNWYQQKPGKVPKLLIYAASSLQSGVPSRFSGSGSGTDFTLTISSLQPEDFATYYCQQSYSNPPITFGQGTRLEIK | label 0
* H1M2712N (antibody, mouse IgG1, V domains shown, H1M: mouse IgG1 Fc; divalent) VH: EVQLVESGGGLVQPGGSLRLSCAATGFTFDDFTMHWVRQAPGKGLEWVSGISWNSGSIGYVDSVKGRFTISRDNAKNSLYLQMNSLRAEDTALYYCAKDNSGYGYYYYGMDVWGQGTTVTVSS VL: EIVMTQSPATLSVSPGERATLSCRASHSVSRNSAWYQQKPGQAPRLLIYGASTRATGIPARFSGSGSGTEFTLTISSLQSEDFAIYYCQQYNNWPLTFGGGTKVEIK | label 0
* H2M2777N (antibody, mouse IgG2, V domains shown, H2M: mouse IgG2 Fc, human variable regions; divalent) VH: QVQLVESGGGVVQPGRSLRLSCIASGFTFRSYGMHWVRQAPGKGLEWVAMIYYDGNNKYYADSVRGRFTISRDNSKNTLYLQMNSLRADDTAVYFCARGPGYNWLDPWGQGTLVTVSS VL: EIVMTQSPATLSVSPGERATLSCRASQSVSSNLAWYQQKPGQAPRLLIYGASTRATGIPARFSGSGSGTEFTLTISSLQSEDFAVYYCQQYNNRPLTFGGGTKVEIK | label 0
* H2M2775N (antibody, mouse IgG2, V domains shown, H2M: mouse IgG2 Fc, human variable regions; divalent) VH: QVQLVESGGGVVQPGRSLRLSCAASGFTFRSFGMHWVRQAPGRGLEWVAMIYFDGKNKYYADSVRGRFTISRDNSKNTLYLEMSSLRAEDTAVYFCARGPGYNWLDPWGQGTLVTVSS VL: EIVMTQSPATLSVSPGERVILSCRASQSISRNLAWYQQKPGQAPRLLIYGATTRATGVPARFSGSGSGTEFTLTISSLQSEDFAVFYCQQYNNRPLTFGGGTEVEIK | label 1
* H2M2774N (antibody, mouse IgG2, V domains shown, H2M: mouse IgG2 Fc, human variable regions; divalent) VH: QVQLVESGGGVVQPGRSLRLSCVASGFTFRSYGMHWVRQAPGKGLQWVAMIYYDGKNKYYADSVRGRFTISRDNSKNTLYLQMNSLRAEDTAMYFCARGPGYNWLDPWGQGTLVTVSS VL: EIVMTQSPATLSVSPGERATLSCRASQRISSNLAWYQQKPGQAPRLLIYGASTRATGSPARFSGSGSGTEFTLTISSLQSEDVAVYYCQQHNNWPLTFGGGTKVEIK | label 1
